Target: T1, cyno PRLR ECD-his6 protein (cyno)
T1 chain: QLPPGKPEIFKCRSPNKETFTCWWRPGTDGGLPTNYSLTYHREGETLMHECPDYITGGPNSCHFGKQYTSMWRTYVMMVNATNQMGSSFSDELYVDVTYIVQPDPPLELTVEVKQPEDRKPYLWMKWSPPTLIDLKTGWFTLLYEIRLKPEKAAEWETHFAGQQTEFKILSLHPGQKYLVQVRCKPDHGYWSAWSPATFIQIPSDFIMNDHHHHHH
Test: ELISA on ECD
pEC50: −log10 of the molar value.

| BINDER | CENSOR_SYMBOL | pEC50 |
| --- | --- | --- |
| Ab12 (antibody, V domains shown, murine monoclonal, isotype G2a; reported as PRLR agonist; also called murine Ab12) VH: DVQLQESGPGLVKPSQSLSLTCTVTGYSITSDYAWNWIRQFPGNKLEWMGYIGYSGRTSFNPSLKSRISITRDTSKNQFFLQLNSVTTEDTATYYCARGGFAMDYWGQGTSVTVSS VL: QIVLTQSPGIMSASPGEKVTMTCSASSSVTYMYWYQQKPRSSPKPWIYLTSNLASGVPARFSGSGSGTSYSLTISSMEAEDGATYYCQQWSSTPPLTFGGGTKLELN | > | 8.40 |
| chAb8 (antibody, human IgG1, kappa, V domains shown, chimeric, murine variable and human G1/kappa constant regions) VH: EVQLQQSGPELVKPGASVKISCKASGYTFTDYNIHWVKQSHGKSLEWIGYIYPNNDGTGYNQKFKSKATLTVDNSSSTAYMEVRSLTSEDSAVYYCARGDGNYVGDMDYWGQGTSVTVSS VL: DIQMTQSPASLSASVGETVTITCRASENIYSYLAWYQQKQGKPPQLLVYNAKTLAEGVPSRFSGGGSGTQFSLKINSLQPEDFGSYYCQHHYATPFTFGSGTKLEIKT | = | 9.72 |
| Ab39 (antibody, human IgG1, kappa, V domains shown, humanized from Ab7; G1; also called Ab4 HC.1a and Ab4 LC.1a) VH: EVQLVQSGAEVKKPGSSVKVSCKASGYTFTSYWIHWVRQAPGQGLEWIGEIDPSDSYTNYNQKFKGRATLTVDKSSSTAYMELSSLRSEDTAVYYCARSFFTNWFAYWGQGTLVTVSS VL: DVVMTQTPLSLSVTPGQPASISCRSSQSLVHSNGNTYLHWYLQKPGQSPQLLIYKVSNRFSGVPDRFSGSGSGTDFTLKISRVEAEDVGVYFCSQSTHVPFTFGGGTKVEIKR | = | 9.34 |
| Ab36 (antibody, human IgG1, kappa, V domains shown, humanized from Ab7; G1; also called Ab4 HC.1 and Ab4 LC.1a) VH: EVQLVQSGAEVKKPGSSVKVSCKASGYTFTSYWIHWVRQAPGQGLEWMGEIDPSDSYTNYNQKFKGRVTITADKSTSTAYMELSSLRSEDTAVYYCARSFFTNWFAYWGQGTLVTVSS VL: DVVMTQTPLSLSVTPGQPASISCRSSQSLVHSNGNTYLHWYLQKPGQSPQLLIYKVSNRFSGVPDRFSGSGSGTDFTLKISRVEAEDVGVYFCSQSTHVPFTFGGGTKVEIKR | = | 9.27 |
| chAb7 (antibody, human IgG1, kappa, V domains shown, chimeric, murine variable and human G1/kappa constant regions) VH: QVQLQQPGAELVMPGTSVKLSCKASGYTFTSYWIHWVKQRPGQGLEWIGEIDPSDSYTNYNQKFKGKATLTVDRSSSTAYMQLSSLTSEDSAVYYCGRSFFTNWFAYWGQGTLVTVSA VL: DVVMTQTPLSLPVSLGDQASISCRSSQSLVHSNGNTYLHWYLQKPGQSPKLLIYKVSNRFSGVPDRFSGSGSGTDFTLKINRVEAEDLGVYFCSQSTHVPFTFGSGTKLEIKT | = | 9.93 |
| Ab47 (antibody, human IgG1, kappa, V domains shown, humanized from Ab8; G1; also called Ab3 HC.1a and Ab3 LC.1) VH: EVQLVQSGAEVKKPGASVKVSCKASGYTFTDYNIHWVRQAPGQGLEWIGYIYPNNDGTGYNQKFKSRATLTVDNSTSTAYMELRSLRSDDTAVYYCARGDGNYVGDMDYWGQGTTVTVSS VL: DIQMTQSPSSLSASVGDRVTITCRASENIYSYLAWYQQKPGKAPKLLIYNAKTLAEGVPSRFSGSGSGTDFTLTISSLQPEDFATYYCQHHYATPFTFGQGTKLEIKR | = | 9.92 |
| Ab44 (antibody, human IgG1, kappa, V domains shown, humanized from Ab8; G1; also called Ab3 HC.1 and Ab3 LC.1) VH: EVQLVQSGAEVKKPGASVKVSCKASGYTFTDYNIHWVRQAPGQGLEWMGYIYPNNDGTGYNQKFKSRVTMTTDTSTSTAYMELRSLRSDDTAVYYCARGDGNYVGDMDYWGQGTTVTVSS VL: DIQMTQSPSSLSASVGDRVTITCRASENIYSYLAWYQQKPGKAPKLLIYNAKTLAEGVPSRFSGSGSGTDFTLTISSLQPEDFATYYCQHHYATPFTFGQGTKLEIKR | = | 10.02 |
| Ab16 (antibody, human IgG1, kappa, V domains shown, humanized from Ab6; G1; also called Ab1 HC.1 and Ab1 LC.2) VH: EVQLVQSGAEVKKPGSSVKVSCKASGYTFTTYWMHWVRQAPGQGLEWMGEIDPSDSYSNYNQKFKDRVTITADKSTSTAYMELSSLRSEDTAVYYCARNGGLGPAWFSYWGQGTLVTVSS VL: EIVMTQSPATLSVSPGERATLSCKASQYVGTAVAWYQQKPGQAPRLLIYSASNRYTGIPARFSGSGSGTEFTLTISSLQSEDFAVYYCQQYSSYPWTFGGGTKVEIKR | = | 10.17 |
| Ab11 (antibody, V domains shown, murine monoclonal, isotype G1; also called murine Ab11) VH: EVKLVESGGGLVQPGGSLKLSCAASGFTFSDYYMFWVRQTPEKSLEWVAYISNGGGSTYYPDTVKGRFTISRDNAKNTLYLQMSRLKSEDTAMYYCSRQLFYYGSRGAMGYWGQGTSVTVSS VL: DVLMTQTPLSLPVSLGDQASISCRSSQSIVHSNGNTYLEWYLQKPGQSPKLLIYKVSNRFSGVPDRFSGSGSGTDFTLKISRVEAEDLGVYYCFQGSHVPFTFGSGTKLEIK | = | 9.82 |
| Ab20 (antibody, human IgG1, kappa, V domains shown, humanized from Ab6; G1; also called Ab1 HC.1a and Ab1 LC.2) VH: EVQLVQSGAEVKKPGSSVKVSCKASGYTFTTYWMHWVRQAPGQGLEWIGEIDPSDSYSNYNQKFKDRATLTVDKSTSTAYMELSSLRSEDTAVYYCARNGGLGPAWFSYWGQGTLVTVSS VL: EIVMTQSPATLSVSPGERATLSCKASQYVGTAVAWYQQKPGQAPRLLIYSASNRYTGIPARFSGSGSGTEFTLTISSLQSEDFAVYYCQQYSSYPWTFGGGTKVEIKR | = | 10.15 |
